System: L1210
Experiment: Compound was tested in vitro against L1210 leukemia cells
Type: functional, cell-based
Measurement conditions: Mus musculus
IC50 vs 1 nM: less than gives True; not less than gives False.

- Molecule: "CC(=O)Nc1ccc2[nH]c(C(=O)Nc3ccc4[nH]c(C(=O)N5C[C@@H](CCl)c6c5cc(O)c5ccccc65)cc4c3)cc2c1"
  Qualitative label: "False"
- Molecule: "COc1cccc2c1C(=O)c1c(O)c3c(c(O)c1C2=O)C[C@@](O)(C(=O)CO)C[C@@H]3O[C@H]1C[C@H](N)[C@H](O)[C@H](C)O1"
  Qualitative label: "False"
- Molecule: "COc1ccc2[nH]c(C(=O)Nc3ccc4[nH]c(C(=O)N5CC(CCl)c6c5cc(O)c5ccccc65)cc4c3)cc2c1 (racemic)"
  Qualitative label: "False"
- Molecule: "CC(=O)Nc1cc(C(=O)Nc2cc(C(=O)N3CC(CCl)c4c3cc(O)c3ccccc43)n(C)c2)n(C)c1 (racemic)"
  Qualitative label: "False"
- Molecule: "CC(=O)Nc1ccc2oc(C(=O)Nc3ccc4[nH]c(C(=O)N5C[C@@H](CCl)c6c5cc(O)c5ccccc65)cc4c3)cc2c1"
  Qualitative label: "True"
- Molecule: "O=C(Nc1ccc2[nH]c(C(=O)N3CC(CCl)c4c3cc(O)c3ccccc43)cc2c1)c1cc2cc(F)ccc2o1 (racemic)"
  Qualitative label: "True"
- Molecule: "CC(=O)Nc1ccc2[nH]c(C(=O)Nc3ccc4[nH]c(C(=O)N5CC(CCl)c6c5cc(O)c5ccccc65)cc4c3)cc2c1 (racemic)"
  Qualitative label: "False"
- Molecule: "CC(=O)Nc1ccc2oc(C(=O)Nc3ccc4[nH]c(C(=O)N5CC(CCl)c6c5cc(O)c5ccccc65)cc4c3)cc2c1 (racemic)"
  Qualitative label: "False"
- Molecule: "O=C(Nc1ccc2[nH]c(C(=O)N3CC(CCl)c4c3cc(O)c3ccccc43)cc2c1)c1cc2cc(F)ccc2[nH]1 (racemic)"
  Qualitative label: "True"
- Molecule: "O=C(Nc1ccc2[nH]c(C(=O)N3CC(CCl)c4c3cc(O)c3ccccc43)cc2c1)c1cc2cc([N+](=O)[O-])ccc2o1 (racemic)"
  Qualitative label: "True"
